Recorded IC50 values (human Dopamine D2L receptor (Homo sapiens, UniProt P14416)) are given below.
endpoint_name: IC50 (µM)

Past entries and their recorded results:
1) N#Cc1ccc(NC2CCN(Cc3cccc(C(F)(F)F)c3)CC2)nn1	1.41
2) N#Cc1ccc(NC2CCN(Cc3ccccc3)CC2)nn1 [Example D2]	2.95
3) N#Cc1ccc(NC2CCN(Cc3cccc(F)c3)CC2)nn1	6.03
4) N#Cc1ccc(NC2CCN(Cc3cc(F)cc(C(F)(F)F)c3)CC2)nn1	3.02
5) N#Cc1ccc(NC2CCN(Cc3cccc(Cl)c3)CC2)nn1	3.24

P. N#Cc1ccc(NC2CCN(Cc3ccc(F)c(C(F)(F)F)c3)CC2)nn1
Q. Cc1c(C#N)nnc(NC2CCN(Cc3cc(F)cc(F)c3)CC2)c1C
Which value of IC50 is numerically greater: that of P or that of Q ? Lab log: write the label of the selected item as the result.
P
